System: spontaneously hypertensive rats (SHR)
Test: Antihypertensive activity (blood pressure after oral administration)
Assay type: in vivo
Details: SHR, oral 30 mg/kg, 2 hrs after administration, mean ± S.E.
reported-property: Blood pressure 2 hrs

compound: CNc1nc(C)nc2c1ncn2[C@@H]1O[C@H](CO)[C@@H](O)[C@H]1OC [Compound 21, 2,N^6,2'-O-trimethyladenosine]
target-system: spontaneously hypertensive rats (SHR)
Blood pressure 2 hrs: 159 ± 20 mmHg
//
compound: CNc1ncnc2c1ncn2[C@@H]1O[C@H](CO)[C@@H](O)[C@H]1OC [Compound 17, N^6-2'-O-dimethyladenosine]
target-system: spontaneously hypertensive rats (SHR)
Blood pressure 2 hrs: 192 ± 15 mmHg
//
compound: CNc1ncnc2c1ncn2[C@@H]1O[C@H](COC)[C@@H](O)[C@H]1O [Compound 19, N^6-5'-O-dimethyladenosine]
target-system: spontaneously hypertensive rats (SHR)
Blood pressure 2 hrs: 122 ± 8 mmHg
//
compound: COC[C@H]1O[C@@H](n2cnc3c(N)ncnc32)[C@H](O)[C@@H]1O [Compound 11, 5'-O-methyladenosine]
target-system: spontaneously hypertensive rats (SHR)
Blood pressure 2 hrs: 189 ± 3 mmHg
//
compound: CO[C@@H]1[C@H](O)[C@@H](CO)O[C@H]1n1cnc2c(N)nc(F)nc21 [Compound 29, 2-fluoro-2'-O-methyladenosine]
target-system: spontaneously hypertensive rats (SHR)
Blood pressure 2 hrs: 131 ± 4 mmHg

Please look at the following compound next.
Prompt line: GET /values?readout=Blood pressure 2 hrs&item= CCO[C@@H]1[C@H](O)[C@@H](CO)O[C@H]1n1cnc2c(N)nc(C)nc21 [Compound 9, 2-methyl-2'-O-ethyladenosine]
Response line: 169 ± 7 mmHg

----------
Test: in vivo
Conditions: mouse, oral, in 0.5% C.M.C., ddY male mice, death rate for 7 days
reported-property: LD50 at 168 h

Please review the following examples before continuing.
smiles-notation: CO[C@@H]1[C@H](O)[C@@H](CO)O[C@H]1n1cnc2c(N)ncnc21
LD50 at 168 h: > 2000 mg/kg

smiles-notation: COC[C@H]1O[C@@H](n2cnc3c(N)nc(C)nc32)[C@H](O)[C@@H]1O
LD50 at 168 h: 500 to 1000 mg/kg

smiles-notation: CO[C@@H]1[C@H](O)[C@@H](CO)O[C@H]1n1cnc2c(N)nc(C)nc21
LD50 at 168 h: 540 mg/kg

smiles-notation: CO[C@H]1[C@@H](O)[C@H](n2cnc3c(N)ncnc32)O[C@@H]1CO
LD50 at 168 h: > 2000 mg/kg

smiles-notation: COC[C@H]1O[C@@H](n2cnc3c(N)ncnc32)[C@H](O)[C@@H]1O
LD50 at 168 h: 800 mg/kg

smiles-notation: CNc1nc(C)nc2c1ncn2[C@@H]1O[C@H](CO)[C@@H](O)[C@H]1OC
LD50 at 168 h: ~400 mg/kg

smiles-notation: CNc1ncnc2c1ncn2[C@@H]1O[C@H](COC)[C@@H](O)[C@H]1O
LD50 at 168 h: 1300 mg/kg

smiles-notation: CNc1nc(C)nc2c1ncn2[C@@H]1O[C@H](COC)[C@@H](O)[C@H]1O
LD50 at 168 h: 1320 mg/kg

smiles-notation: CCO[C@@H]1[C@H](O)[C@@H](CO)O[C@H]1n1cnc2c(N)ncnc21
LD50 at 168 h: 750 to 1000 mg/kg

smiles-notation: CCO[C@@H]1[C@H](O)[C@@H](CO)O[C@H]1n1cnc2c(NC)nc(C)nc21
LD50 at 168 h: ~400 mg/kg

Prompt line: Given CO[C@@H]1[C@H](O)[C@@H](CO)O[C@H]1n1cnc2c(N)nc(F)nc21 , state its recorded LD50 at 168 h.
Response line: > 2000 mg/kg

Prompt line: Return reported LD50 at 168 h; argument: CCO[C@@H]1[C@H](O)[C@@H](CO)O[C@H]1n1cnc2c(N)nc(C)nc21
Response line: 500 to 1000 mg/kg

Prompt line: Suppose we examine the molecule CO[C@@H]1[C@H](O)[C@@H](CO)O[C@H]1n1cnc2c(N)nc(Cl)nc21 ; what LD50 at 168 h value has been reported?
Response line: ~400 mg/kg

----------
Catalogue of compounds with associated inhibition in vivo at 30 mg/kg
Tested on: spontaneously hypertensive rats (SHR)
Test: Antihypertensive activity (blood pressure after oral administration)
Format: in vivo
Conditions: Rattus norvegicus; SHR, oral 30 mg/kg, 6 hrs, decrease vs before; read-out: Blood pressure 6 hrs [Decrease]
// units = %; emit number, no label

// worked examples, inhibition in vivo at 30 mg/kg included
compound: COC[C@H]1O[C@@H](n2cnc3c(N)ncnc32)[C@H](O)[C@@H]1O [Compound 11, 5'-O-methyladenosine]
unit-abbrev: %
inhibition in vivo at 30 mg/kg: 6.6
--
compound: CCO[C@@H]1[C@H](O)[C@@H](CO)O[C@H]1n1cnc2c(N)nc(C)nc21 [Compound 9, 2-methyl-2'-O-ethyladenosine]
unit-abbrev: %
inhibition in vivo at 30 mg/kg: 13.5
--
compound: CO[C@@H]1[C@H](O)[C@@H](CO)O[C@H]1n1cnc2c(N)nc(F)nc21 [Compound 29, 2-fluoro-2'-O-methyladenosine]
unit-abbrev: %
inhibition in vivo at 30 mg/kg: 16.4
--
compound: CNc1ncnc2c1ncn2[C@@H]1O[C@H](COC)[C@@H](O)[C@H]1O [Compound 19, N^6-5'-O-dimethyladenosine]
unit-abbrev: %
inhibition in vivo at 30 mg/kg: 26.3
--
compound: CNc1nc(C)nc2c1ncn2[C@@H]1O[C@H](CO)[C@@H](O)[C@H]1OC [Compound 21, 2,N^6,2'-O-trimethyladenosine]
unit-abbrev: %
inhibition in vivo at 30 mg/kg: 10.8

Prompt line: Quick one: inhibition in vivo at 30 mg/kg of CNc1ncnc2c1ncn2[C@@H]1O[C@H](CO)[C@@H](O)[C@H]1OC [Compound 17, N^6-2'-O-dimethyladenosine] ?
Response line: 14.1
